Tested on: MALME-3M melanoma
Test protocol: NCI tumour cell line growth inhibition, 48 h; in the data active = GI50 below about 0.43 µM; inactive = the rest
# output must be one of active, inactive

Returns: the outcome recorded for `O=C1c2cccc3cccc(c23)C(=O)N1CCCCCN1CCN(CCN=c2cc3n(-c4ccc(Cl)cc4)c4ccccc4nc-3cc2Nc2ccc(Cl)cc2)CC1` in this assay.
inactive

What call does the record list for `O=C1NC(=NCCc2ccc(Cl)cc2)S/C1=C\c1ccc2ncccc2c1` ?
inactive

Answer briefly: the call reported for `C[C@@H]1C[C@@H]([C@H](O)CC2CC(=O)NC(=O)C2)C(=O)[C@@H](C)C1` in this assay.
active

How was O=c1[nH]c(C2CCCN2)nc2c1oc1ccc(Cl)cc12 (stereo not drawn) classified in this test?
inactive

Recorded test call requested for `CSc1nc(Nc2cccc(NC(=O)CCl)c2)c(C#N)c(-c2cccc([N+](=O)[O-])c2)n1`
active

Field: outcome | Entry: `CCC[CH2][Sn-]([CH2]CCC)([CH2]CCC)[O]C(=O)C(C)C`
active

What classification did `COc1ccc(-n2cc(-c3ccc(OC)c(OC)c3)[nH]c2=O)cc1` end up with in this test?
inactive

# lookup: test call for `CCN(CC)C(=S)SSC(C)C`
inactive
